Recorded values, source the nanobody polyreactivity screen of Harvey et al. (2022).

- assay: yeast display, Sf9 membrane polyspecificity reagent, FACS + sequencing; frameworks hold sequencing errors
measurement label: polyreactivity (PSR sort gate)

Examples from the recorded data:
ordered residues: QVQLVESGGGLVQAGGSLRLSCAASGRIFLSNALGWYRQAPGKERELVAAINSGGNTDYADSVKGRFTISRDNAKNTVYLQMNSLKPEDTAVYYCAADAFSWDHDYWGQGTQVTVSS
polyreactivity (PSR sort gate): low polyreactivity
//
ordered residues: QVQLVESGGGLVQAGGSLRLSCAASGFSSVRNDMGWYRQAPGKERELVAAISSGDTKDYADSVKGRFTISRDNAKNTVYLQMNSLNPEDTSVYYCAAVYYGRYYYWGQGTQVTVSS
polyreactivity (PSR sort gate): low polyreactivity
//
ordered residues: QVQLVESGGGLVQAGGSLRLSCAASGSTFVYYAMGWYRQAPGTERELVAAITGSVDSTYYADSVKGRFTISRDNAKNPVYLQMNSLQPEDTAVYYCAADTYSTYWGQGTQVTVSS
polyreactivity (PSR sort gate): low polyreactivity
//
ordered residues: QVQLVESGVGLVQAGGSLRLSCAASGFTFARYAMGRYRQAPGKEREFVAAISLSTTSTYYADSVKGRFTISRDYANNNVFLQMNSLKPEDTAVYYCATDIVGPHFDYWGQGTQVSVSS
polyreactivity (PSR sort gate): low polyreactivity
//
ordered residues: QVQLVESGGGLVQAGGSLRLSCAASGIIFRRYAMGWYRQAPGKERELVAAISSRGGSTYYADSVKRRFTISRDNAKNTVYLQMNSLKPEDTAVYYCAKGFSGTGGSGDFGYWGQGTQVTVSS
polyreactivity (PSR sort gate): high polyreactivity

**Query** // query polyreactivity (PSR sort gate) value for entry QVQLVESGGGLVQAGGSLRLSCAASGLIFLPYAMGWYRQAPGKERELVAAIRWSDDSTYYADSVKGRFTILRDNAKNTVYFQMNCLKPEDTAVYYCNAYVYRPSYIFNYYYEYDYWGQGTQVTVSS
**Result** high polyreactivity

**Query** // query polyreactivity (PSR sort gate) value for entry QVQLVESGGGLVQAGGSLRLSCAASGRTFNWYAMGWYRQAPGKEWELVAAISGGGGSTYYADSVKGRFTISRDNAKNTVYLQMNSLKPEDTAVYYCAADVEGWTVESDVYRVGYDYWGQGTQVTVSS
**Result** low polyreactivity

----------
- assay: yeast display, Sf9 membrane polyspecificity reagent, FACS + sequencing; frameworks hold sequencing errors
measurement label: polyreactivity (PSR sort gate)

Examples from the recorded data:
ordered residues: QVQLVESGGGLVQAGGSLRLSCAASGGTFYGYAAMGWYRQAPGKERELVAAISRSGGRTYYADSVKGRFTISRDNAKNTVYLQMNSLKPEDTAVYDCNVGFYPYSFLTFQGGDYWGQGTQVTVSS
measurement label: polyreactivity (PSR sort gate)
assay value: high polyreactivity

ordered residues: QVQLVESGGGLVQAGGSLRLSCAATGLIFSLYAMGWYRQAPGKERELVAAISASDGSTYYADSVKGRFTISRDNAKNTVYLQMNSLKPEDTAVYYCAADSRPTQEYDYWGQGTQVTVSS
measurement label: polyreactivity (PSR sort gate)
assay value: low polyreactivity

ordered residues: QVQLVESGGGLVQAGGSLRLSCAASGYTFRGYAMGWYRQAPGKEREFVAAINWSDGSTYYADSVKGRFTISRDNAKNTVYLQMNSLKPEDTAVYYCNADQYYRVPDNYWGQGTQVTVSS
measurement label: polyreactivity (PSR sort gate)
assay value: low polyreactivity

ordered residues: QVQLVESGGGLVQAGGSLRLSCAASGSIFLYNAMRWYRQAPGKERELVAAKSYSGASTYYADSVKGRFTISRDNAKNTVYLQMNSLKAEDTAVYYCAKTFRYKWPYGTPKYDYWGQGTQVTVSS
measurement label: polyreactivity (PSR sort gate)
assay value: high polyreactivity

ordered residues: QVQLVESGGGLVQAGGSLRLSSAASGSIFRYNAMGWYRQAPGKERELFAAISYRGGRTYYADSVKGRFTISRDNAKNTVYLQMNSLKPEDTAVYYCNADSIYSARGWLYGYWGQGTQVTVSS
measurement label: polyreactivity (PSR sort gate)
assay value: low polyreactivity

**Query** // query polyreactivity (PSR sort gate) value for entry QVQLVESGGGLVQAGGSLRLSCAASGSTFYWYAMGWYRQAPGKERELVAAIDSGGSTNYADSVKGRFTISRDNAKNTVYLQMNSLKPEDTAVYYCATVYYTIWDPTYEYDYWGQGTQVTVSS
**Result** low polyreactivity

**Query** // query polyreactivity (PSR sort gate) value for entry QVQLGESGGGLVQAGGSLRLSCAGSGRTFVRSARGWSSQAPGKARELVARITSRGTSTYYADSVKGRFTSSRDNAKNTDYLLMNSLNPEDNAVYYCNNVRTFRDNSRYDYWGQGTHVTVSS
**Result** low polyreactivity

**Query** // query polyreactivity (PSR sort gate) value for entry QVQLVESGGGLVQAGGSLRLSCAASGLIFYYYVMGWYRQAPGKERELVARISTSGGSTYYADSVKGRFTISRDNAKNTVYLQMNSLKPEDTAVYYCAADHYGGRDYWGQGTQVTVSS
**Result** low polyreactivity

**Query** // query polyreactivity (PSR sort gate) value for entry QLQLVESGGGLVQAGGSLRLSCAASGSTFYAYAMGWYRQAPGKERELVARIRWRGGRTYYADSVKGRFTISRDNAKNTVYLRMNSLKPEDTAVYYCAADLSRAGGGYWGQGTQVTVSS
**Result** high polyreactivity

**Query** // query polyreactivity (PSR sort gate) value for entry QVQLVESGGGLVQAGGSLRLSCAASGFTFAYYTMGWYRQAPGKERELVAAINWSGGSTYYADSVKGRFTISRDNAKNTVYLQMNSLKPEDTAVYYSAPTCPYYNSRQGHQYDYWGQGTQVTVSS
**Result** high polyreactivity

----------
- assay: yeast display, Sf9 membrane polyspecificity reagent, FACS + sequencing; frameworks hold sequencing errors
measurement label: polyreactivity (PSR sort gate)

Examples from the recorded data:
ordered residues: QVQLVESGGGLVQAGGSLRLSCAASGSTFGYNAMGWYRQAPGKERELVARITSSGGSTYYADSVKGRFTISRDNAKNTVYLQMNSLKPEDTAVYYCAAGYLSGNYARYGYWGQGTQVTVSS
assay value: high polyreactivity

ordered residues: QVQLVESGGGLVQAGGSLRLSCAASGRTFVVYAMGWYRQAPGKERELVAVISFTGDSTFYADSVKGRFTISRDNAKNTVYLQMNSLKPEDTAVYYCAADLDWSPHFGLPYDYWGQGTQVTVSS
assay value: low polyreactivity

ordered residues: QVQLVESGGGLVQAGGSLRLSCAASGSIFRYNAMGWYRQEPGKERELVASINGGGGTYYPDSVKGRFTISRDNAKNTVYLQMNSLKPEDTAVLYCNTVVNSFSYASRFNFYYWGQGSQVTVSS
assay value: high polyreactivity

ordered residues: QVQLVESGGGLVQAGGSLRLSCAASGLTFLNNAMGWYRQAHGKERELVAAISDGGSTNYADSVKGRFTISRDNAKNTVYLQMNSLKPEDTAVYYCGADYTSASYGSWGQGTQVTVSS
assay value: low polyreactivity

**Query** // query polyreactivity (PSR sort gate) value for entry QVQLVESGGGLVQAGGSLRLSCAASGRTFTRYVMGWYRQAPGKESELVAVISSGGRTYYADSVKGRFTISRDNAKNTVYLQMNSLKPEDTAVYYCAAVTHPAWAVEYDYWGQGTQVTVSS
**Result** high polyreactivity

**Query** // query polyreactivity (PSR sort gate) value for entry QVQLVESGGGLVQAGGSLRLSCAASGSIFDVYAMGWYRQAPGKERELVAAIRTRGGSTYYADSVKGRFTISRDNAKNTVYLQMNSLKPEDTAVYYCAAYPLVSWGRHGTKGDYWGQGTQVTVSS
**Result** low polyreactivity

**Query** // query polyreactivity (PSR sort gate) value for entry QVKLEESGGGLVQAGGSLRLSCAASGRTFTTYSMGCYRQAPGKERELVAAISGSGGSTYYADSVKGRFTISRDNAKNSVYVQMNSLKPEDTAVYYCATAYYYHGGYYYPYDDYWGQGTQVTVSS
**Result** low polyreactivity

**Query** // query polyreactivity (PSR sort gate) value for entry QVQLVESGGGLVQPGGSLLLSCAASRITFDHYAMAWYRRAPGKERELVAAITSGGNTNYADSVKGRFTISRDNAKNPVYLQMNSLKPEDTAVYYCNAGYDVCYYYWGKGTQVTVSS
**Result** low polyreactivity

**Query** // query polyreactivity (PSR sort gate) value for entry QVQLVESGGGLVQAGGSLRLSCAASGSTFKQYTMGWYRQATGKERELVAAINRGGTSTNYADSVKGRFTISRDNAKNTVYLQMNSLKPEDTAVYYCNAGYSWGRYYYWGQGTQVTVSS
**Result** low polyreactivity

**Query** // query polyreactivity (PSR sort gate) value for entry QVLLVDSGGGLVHAGGIHRLSCHASVGIFSWYDMGLYRQAPGKERELVAAISWSGGSTYYAYSVKGRFTISRDNAKNTVYLQMNSLKPEDTAVYYCAAYTADYYDYWGQGTQVTVSS
**Result** high polyreactivity

**Query** // query polyreactivity (PSR sort gate) value for entry QVQLVESGGGLVQAGGSLRLSCAASGRIFNDYAMGWYRPAPGKESELVANYADSVKGRFTISRDNAKNTVYLQMNSLKPEDTAVFYCAADFPSFPDFRPEYDYWGQGTQVTVSS
**Result** low polyreactivity
